Form field: solubility change mitosis (log2) (one value per entry).
system: HeLa Kyoto; experiment: solubility change mitosis vs G1/S (difference of NP-40 vs SDS log2 ratios) (log2 ratio difference); higher = more soluble in mitosis
# respond with the number and nothing more

Prompt: Reported solubility change mitosis (log2), sequence MPVVRKIFRRRRGDSESEEDEQDSEEVRLKLEETREVQNLRKRPNGVSAVALLVGEKVQEETTLVDDPFQMKTGGMVDMKKLKERGKDKISEEEDLHLGTSFSAETNRRDEDADMMKYIETELKKRKGIVEHEEQKVKPKNAEDCLYELPENIRVSSAKKTEEMLSNQMLSGIPEVDLGIDAKIKNIISTEDAKARLLAEQQNKKKDSETSFVPTNMAVNYVQHNRFYHEELNAPIRRNKEEPKARPLRVGDTEKPEPERSPPNRKRPANEKATDDYHYEKFKKMNRRY [C9ORF78] : ____
Response: 0.0516

Others:
Prompt: Reported solubility change mitosis (log2), sequence MADAAATAGAGGSGTRSGSKQSTNPADNYHLARRRTLQVVVSSLLTEAGFESAEKASVETLTEMLQSYISEIGRSAKSYCEHTARTQPTLSDIVVTLVEMGFNVDTLPAYAKRSQRMVITAPPVTNQPVTPKALTAGQNRPHPPHIPSHFPEFPDPHTYIKTPTYREPVSDYQVLREKAASQRRDVERALTRFMAKTGETQSLFKDDVSTFPLIAARPFTIPYLTALLPSELEMQQMEETDSSEQDEQTDTENLALHISMEDSGAEKENTSVLQQNPSLSGSRNGEENIIDNPYLRPVKKPKIRRKKSLS [TAF8] : ____
Response: 0.0206

----------
test system: HeLa Kyoto; experiment: thermal stability score vs G1/S (z-score of summed log2 fold changes over temperatures); higher = more thermally stable than in G1/S; settings: cell cycle stage: early G1 (4.5 h after nocodazole release)
quantity: thermal stability score
# respond with the number and nothing more

Illustrative cases are given below, each with its answer.
Prompt: Reported thermal stability score, sequence MANEVIKCKAAVAWEAGKPLSIEEIEVAPPKAHEVRIKIIATAVCHTDAYTLSGADPEGCFPVILGHEGAGIVESVGEGVTKLKAGDTVIPLYIPQCGECKFCLNPKTNLCQKIRVTQGKGLMPDGTSRFTCKGKTILHYMGTSTFSEYTVVADISVAKIDPLAPLDKVCLLGCGISTGYGAAVNTAKLEPGSVCAVFGLGGVGLAVIMGCKVAGASRIIGVDINKDKFARAKEFGATECINPQDFSKPIQEVLIEMTDGGVDYSFECIGNVKVMRAALEACHKGWGVSVVVGVAASGEEIATRPFQLVTGRTWKGTAFGGWKSVESVPKLVSEYMSKKIKVDEFVTHNLSFDEINKAFELMHSGKSIRTVVKI [ADH5] : ____
Response: -4.67

Prompt: Reported thermal stability score, sequence MSSCSRVALVTGANRGIGLAIARELCRQFSGDVVLTARDVARGQAAVQQLQAEGLSPRFHQLDIDDLQSIRALRDFLRKEYGGLNVLVNNAAVAFKSDDPMPFDIKAEMTLKTNFFATRNMCNELLPIMKPHGRVVNISSLQCLRAFENCSEDLQERFHSETLTEGDLVDLMKKFVEDTKNEVHEREGWPNSPYGVSKLGVTVLSRILARRLDEKRKADRILVNACCPGPVKTDMDGKDSIRTVEEGAETPVYLALLPPDATEPQGQLVHDKVVQNW [CBR3] : ____
Response: -0.991

Prompt: Reported thermal stability score, sequence MADQPKPISPLKNLLAGGFGGVCLVFVGHPLDTVKVRLQTQPPSLPGQPPMYSGTFDCFRKTLFREGITGLYRGMAAPIIGVTPMFAVCFFGFGLGKKLQQKHPEDVLSYPQLFAAGMLSGVFTTGIMTPGERIKCLLQIQASSGESKYTGTLDCAKKLYQEFGIRGIYKGTVLTLMRDVPASGMYFMTYEWLKNIFTPEGKRVSELSAPRILVAGGIAGIFNWAVAIPPDVLKSRFQTAPPGKYPNGFRDVLRELIRDEGVTSLYKGFNAVMIRAFPANAACFLGFEVAMKFLNWATPNL [SLC25A20] : ____
Response: -1.89

Others:
Prompt: Reported thermal stability score, sequence MTLESMMACCLSDEVKESKRINAEIEKQLRRDKRDARRELKLLLLGTGESGKSTFIKQMRIIHGAGYSEEDKRGFTKLVYQNIFTAMQAMIRAMETLKILYKYEQNKANALLIREVDVEKVTTFEHQYVSAIKTLWEDPGIQECYDRRREYQLSDSAKYYLTDVDRIATLGYLPTQQDVLRVRVPTTGIIEYPFDLENIIFRMVDVGGQRSERRKWIHCFENVTSIMFLVALSEYDQVLVESDNENRMEESKALFRTIITYPWFQNSSVILFLNKKDLLEDKILYSHLVDYFPEFDGPQRDAQAAREFILKMFVDLNPDSDKIIYSHFTCATDTENIRFVFAAVKDTILQLNLKEYNLV [GNA11] : ____
Response: 0.848

Prompt: Reported thermal stability score, sequence MARACLQAVKYLMFAFNLLFWLGGCGVLGVGIWLAATQGSFATLSSSFPSLSAANLLIITGAFVMAIGFVGCLGAIKENKCLLLTFFLLLLLVFLLEATIAILFFAYTDKIDRYAQQDLKKGLHLYGTQGNVGLTNAWSIIQTDFRCCGVSNYTDWFEVYNATRVPDSCCLEFSESCGLHAPGTWWKAPCYETVKVWLQENLLAVGIFGLCTALVQILGLTFAMTMYCQVVKADTYCA [TSPAN4] : ____
Response: -5.28e-17

----------
tested on: HeLa Kyoto; experiment: melting temperature (median over replicates), in situ; higher = more thermally stable; settings: cell cycle stage: G1/S
quantity: melting temperature (°C)
Give the value in °C but do not write °C after it.

Prompt: Test system HeLa Kyoto; read-out melting temperature; what value for MVWPWVAMASRWGPLIGLAPCCLWLLGAVLLMDASARPANHSSTRERVANREENEILPPDHLNGVKLEMDGHLNRGFHQEVFLGKDLGGFDEDAEPRRSRRKLMVIFSKVDVNTDRKISAKEMQRWIMEKTAEHFQEAMEESKTHFRAVDPDGDGHVSWDEYKVKFLASKGHSEKEVADAIRLNEELKVDEETQEVLENLKDRWYQADSPPADLLLTEEEFLSFLHPEHSRGMLRFMVKEIVRDLDQDGDKQLSVPEFISLPVGTVENQQGQDIDDNWVKDRKKEFEELIDSNHDGIVTAEELESYMDPMNEYNALNEAKQMIAVADENQNHHLEPEEVLKYSEFFTGSKLVDYARSVHEEF [SDF4] ?
Response: 52.8

Others:
Prompt: Test system HeLa Kyoto; read-out melting temperature; what value for MGEAGAGAGASGGPEASPEAEVVKLLPFLAPGARADLQAAAVRHVLALTGCGPGRALLAGQAALLQALMELAPASAPARDAARALVNLAADPGLHETLLAADPGLPARLMGRALDPQWPWAEEAAAALANLSREPAPCAALMAALAAAEPADSGLERLVRALCTPGYNARAPLHYLAPLLSNLSQRPAARAFLLDPDRCVVQRLLPLTQYPDSSVRRGGVVGTLRNCCFEHRHHEWLLGPEVDILPFLLLPLAGPEDFSEEEMERLPVDLQYLPPDKQREPDADIRKMLVEAIMLLTATAPGRQQVRDQGAYLILRELHSWEPEPDVRTACEKLIQVLIGDEPERGMENLLEVQVPEDVEQQLQQLDCREQEQLERELAPEPWVERATPT [HGH1] ?
Response: 48.7

Prompt: Test system HeLa Kyoto; read-out melting temperature; what value for MEGGGGSGNKTTGGLAGFFGAGGAGYSHADLAGVPLTGMNPLSPYLNVDPRYLVQDTDEFILPTGANKTRGRFELAFFTIGGCCMTGAAFGAMNGLRLGLKETQNMAWSKPRNVQILNMVTRQGALWANTLGSLALLYSAFGVIIEKTRGAEDDLNTVAAGTMTGMLYKCTGGLRGIARGGLTGLTLTSLYALYNNWEHMKGSLLQQSL [TIMM23] ?
Response: 57.3

Prompt: Test system HeLa Kyoto; read-out melting temperature; what value for MATGDLKRSLRNLEQVLRLLNYPEEVDCVGLIKGDPAASLPIISYSFTSYSPYVTELIMESNVELIAKNDLRFIDAVYKLLRDQFNYKPILTKKQFIQCGFAEWKIQIVCDILNCVMKKHKELSSLQKIPSQQRKKISSGKSEPPLGNEKISAEAVGVDISGRFMTSGKKKAVVIRHLYNEDNVDISEDTLSPITDVNEAVDVSDLNATEIKMPEVKVPEIKAEQQDVNVNPEITALQTMLAECQENLKKLTSIEKRLDCLEQKMKGKVMVDENTWTNLLSRVTLLETEMLLSKKNDEFIEFNEVSEDYASCSDMDLLNPHRKSEVERPASIPLSSGYSTASSDSTPRASTVNYCGLNEISEETTIQKMERMKKMFEETAELLKCPNHYL [CEP44] ?
Response: 48.6

Prompt: Test system HeLa Kyoto; read-out melting temperature; what value for MDGPVAEHAKQEPFHVVTPLLESWALSQVAGMPVFLKCENVQPSGSFKIRGIGHFCQEMAKKGCRHLVCSSGGNAGIAAAYAARKLGIPATIVLPESTSLQVVQRLQGEGAEVQLTGKVWDEANLRAQELAKRDGWENVPPFDHPLIWKGHASLVQELKAVLRTPPGALVLAVGGGGLLAGVVAGLLEVGWQHVPIIAMETHGAHCFNAAITAGKLVTLPDITSVAKSLGAKTVAARALECMQVCKIHSEVVEDTEAVSAVQQLLDDERMLVEPACGAALAAIYSGLLRRLQAEGCLPPSLTSVVVIVCGGNNINSRELQALKTHLGQV [SDSL] ?
Response: 55.1
